B1: DYRK1B (parent)
chain: YQGPGTRRLQEVLGVQTGGPGGRR

Variants of: B1
Assay: protein stability index of a GFP-peptide fusion (GPS, HEK-293T) (PSI 1-6); higher = more stable;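 further: lentivirally expressed fusions sorted by FACS into six bins by GFP to DsRed ratio, PSI derived from sequencing read proportions per bin multiplied by bin number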
Details: c terminus: a fixed tail appended
ASSAY_METRIC: protein stability index
Lab note: record just the number, no unit beside it.

> print(dat)
                     residue.codes  value.observed
1  YQGPGTRRLQEVLGVQSGGPGGRR [T17S]            2.77
2  YQGPGTRRLQEVLGVQTGGMGGRR [P20M]            3.02
3  YQGPGTRRLQEVLGAQTGGPGGRR [V15A]            3.69

-- ask Could you share which protein stability index value was measured for YQGCGTRRLQEVLGVQTGGPGGRR [P4C] ?
-- reply 2.29

-- ask Try this variant too: YQTPGTRRLQEVLGVQTGGPGGRR [G3T]
-- reply 3.52

-- ask Then this variant: GQGPGTRRLQEVLGVQTGGPGGRR [Y1G]
-- reply 4.41

-- ask # iterate: YQGPGTRRLQEVLGVQDGGPGGRR [T17D]
-- reply 3.45

-- ask Try the variant YQIPGTRRLQEVLGVQTGGPGGRR [G3I]
-- reply 2.98

-- ask Could you do the same for YQGPGTRRLQEALGVQTGGPGGRR [V12A] , please?
-- reply 2.84

-- ask Consider next the variant YQGPGTRRLQEVLGVQGGGPGGRR [T17G] in the same way.
-- reply 3.66

-- ask Try this variant too: YQGPGTRRLQEVLGVQTGGPGGRQ [R24Q]
-- reply 3.06
